Source: patent US8394776B2

Some compounds, each annotated with its measured leukocytes, Day 5 after modeling.
Tested on: leukocytes (WBC)
Test: Cyclophosphamide-induced leukopenia in mice: leukocytes (WBC)
Assay type: in vivo, Kunming mice
Details: Experimental Example 3; 0.8 mg/kg

{"Compound": "CC1(C)CC[C@]2(C(=O)O[C@@H]3O[C@H](CO)[C@@H](O)[C@H](O)[C@H]3O)CC[C@]3(C)C(=CC[C@@H]4[C@@]5(C)CC[C@H](O[C@@H]6O[C@H](CO)[C@@H](O)[C@H](O)[C@H]6O)C(C)(C)[C@@H]5CC[C@]43C)[C@@H]2C1", "Experimental System": "leukocytes (WBC)", "leukocytes, Day 5 after modeling": 5.48}
{"Compound": "C[C@@H]1CC[C@]2(C(=O)O[C@@H]3O[C@H](CO)[C@@H](O)[C@H](O)[C@H]3O)CC[C@]3(C)C(=CC[C@@H]4[C@@]5(C)CC[C@H](O[C@@H]6OC[C@H](O)[C@H](O)[C@H]6O)C(C)(C)[C@@H]5CC[C@]43C)[C@@H]2[C@]1(C)O [Sample G-22, reference compound]", "Experimental System": "leukocytes (WBC)", "leukocytes, Day 5 after modeling": 8.81}
{"Compound": "CC1(C)CC[C@]2(C(=O)O[C@@H]3OC[C@H](O)[C@H](O)[C@H]3O)CC[C@]3(C)C(=CC[C@@H]4[C@@]5(C)CC[C@H](O[C@@H]6OC[C@H](O)[C@H](O)[C@H]6O)C(C)(C)[C@@H]5CC[C@]43C)[C@@H]2C1", "Experimental System": "leukocytes (WBC)", "leukocytes, Day 5 after modeling": 7.55}
{"Compound": "C[C@H]1[C@H](C)CC[C@]2(C(=O)O[C@@H]3O[C@H](CO)[C@@H](O)[C@H](O)[C@H]3O)CC[C@]3(C)C(=CC[C@@H]4[C@@]5(C)CC[C@H](O[C@@H]6O[C@H](CO)[C@@H](O)[C@H](O)[C@H]6O)C(C)(C)[C@@H]5CC[C@]43C)[C@H]12", "Experimental System": "leukocytes (WBC)", "leukocytes, Day 5 after modeling": 5.62}
{"Compound": "C[C@H]1[C@H](C)CC[C@]2(C(=O)O[C@@H]3OC[C@H](O)[C@H](O)[C@H]3O)CC[C@]3(C)C(=CC[C@@H]4[C@@]5(C)CC[C@H](O[C@@H]6OC[C@H](O)[C@H](O)[C@H]6O)C(C)(C)[C@@H]5CC[C@]43C)[C@H]12", "Experimental System": "leukocytes (WBC)", "leukocytes, Day 5 after modeling": 9.33}

###

Test system: leukocytes (WBC)
Test: Cyclophosphamide-induced leukopenia in mice: leukocytes (WBC)
Type: in vivo, Kunming mice
Conditions: Experimental Example 2; 0.8 mg/kg
Procedure: Further, in vivo experiments were carried out on the compounds involved in the present invention using animal models of cyclophosphamide-induced leukopenia in mice. […] The mice were killed on day 5 after the final lumbar injection of cyclophosphamide (i.e day 5 after modeling), and the leukocytes (WBC) and platelets (PLT) of the hemogram index were counted. […]
Some compounds, each annotated with its measured leukocytes (WBC), Day 3 after modeling.

{"Compound": "CC1(C)CC[C@]2(C(=O)O)CC[C@]3(C)C(=CC[C@@H]4[C@@]5(C)CC[C@H](O)C(C)(C)[C@@H]5CC[C@]43C)[C@@H]2C1", "Experimental System": "leukocytes (WBC)", "leukocytes (WBC), Day 3 after modeling": 3.88}
{"Compound": "C[C@H]1[C@H](C)CC[C@]2(C(=O)O)CC[C@]3(C)C(=CC[C@@H]4[C@@]5(C)CC[C@H](O)C(C)(C)[C@@H]5CC[C@]43C)[C@H]12", "Experimental System": "leukocytes (WBC)", "leukocytes (WBC), Day 3 after modeling": 3.94}
{"Compound": "C[C@@H]1CC[C@]2(C(=O)O[C@@H]3O[C@H](CO)[C@@H](O)[C@H](O)[C@H]3O)CC[C@]3(C)C(=CC[C@@H]4[C@@]5(C)CC[C@H](O[C@@H]6OC[C@H](O)[C@H](O)[C@H]6O)C(C)(C)[C@@H]5CC[C@]43C)[C@@H]2[C@]1(C)O [Sample G-22, reference compound]", "Experimental System": "leukocytes (WBC)", "leukocytes (WBC), Day 3 after modeling": 5.17}

###

Some molecules, each annotated with its measured leukocytes (WBC), Day 3 after modeling.
System: leukocytes (WBC)
Assay: Cyclophosphamide-induced leukopenia in mice: leukocytes (WBC)
Assay type: in vivo, Kunming mice
Conditions: Experimental Example 2; 0.8 mg/kg
Description: Further, in vivo experiments were carried out on the compounds involved in the present invention using animal models of cyclophosphamide-induced leukopenia in mice. […] The mice were killed on day 5 after the final lumbar injection of cyclophosphamide (i.e day 5 after modeling), and the leukocytes (WBC) and platelets (PLT) of the hemogram index were counted. […]

{"Line Notation": "C[C@H]1[C@H](C)CC[C@]2(C(=O)O[C@@H]3O[C@H](CO)[C@@H](O)[C@H](O)[C@H]3O)CC[C@]3(C)C(=CC[C@@H]4[C@@]5(C)CC[C@H](O[C@@H]6OC[C@H](O)[C@H](O)[C@H]6O)C(C)(C)[C@@H]5CC[C@]43C)[C@H]12", "leukocytes (WBC), Day 3 after modeling": "6.91 ± 2.54**★"}
{"Line Notation": "C[C@H]1[C@H](C)CC[C@]2(C(=O)O)CC[C@]3(C)C(=CC[C@@H]4[C@@]5(C)CC[C@H](O[C@@H]6OC[C@H](O)[C@H](O)[C@H]6O)C(C)(C)[C@@H]5CC[C@]43C)[C@H]12", "leukocytes (WBC), Day 3 after modeling": "7.13 ± 2.61**★"}
{"Line Notation": "C[C@H]1[C@H](C)CC[C@]2(C(=O)O[C@@H]3OC[C@H](O)[C@H](O)[C@H]3O)CC[C@]3(C)C(=CC[C@@H]4[C@@]5(C)CC[C@H](O[C@@H]6OC[C@H](O)[C@H](O)[C@H]6O)C(C)(C)[C@@H]5CC[C@]43C)[C@H]12", "leukocytes (WBC), Day 3 after modeling": "7.85 ± 3.00**★★"}
